Where these numbers come from: patent US20210130452A1

experimental system: T1, human IL-17A/F heterodimer (human, UniProt Q16552 24-155; Q96PD4 31-163, limits assumed)
T1 construct: bought, made in E. coli (R&D Systems 5194-IL/CF); also called hIL-17A/F; hIL17A/F
T1 sequence (Q16552 24-155 limits assumed, chain 1 of 2): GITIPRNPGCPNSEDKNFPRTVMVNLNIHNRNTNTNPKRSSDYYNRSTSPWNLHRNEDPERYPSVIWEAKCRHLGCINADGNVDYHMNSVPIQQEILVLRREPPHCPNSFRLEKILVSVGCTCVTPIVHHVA
T1 sequence (Q96PD4 31-163 limits assumed, chain 2 of 2): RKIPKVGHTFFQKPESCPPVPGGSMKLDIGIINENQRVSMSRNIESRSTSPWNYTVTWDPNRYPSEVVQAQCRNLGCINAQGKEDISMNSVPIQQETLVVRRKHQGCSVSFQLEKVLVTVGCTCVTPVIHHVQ
assay overview: SPR (Biacore) off-rate
koff values by entry

| binder | units of measure | koff |
| --- | --- | --- |
| IL17MS3047 (VHH, variant of IL17MS13B03; Kabat numbering) VHH: EVQLVESGGGLVQPGGSLRLSCAASGRANSINWFGWFRQAPGKEREFVAGIRWSDAYTEYAASVKGRFTISRDNSKNTVYLQMNSLRPEDTAVYYCVLDLSTVRYWGQGTLVTVSS | s⁻¹ | 0.000538 |
| IL17MS3044 (VHH, variant of IL17MS13B03; Kabat numbering) VHH: EVQLVESGGGLVQPGDSLRLSCAASGRANSINWFGWFRQTPGKEREFVAGIRWSDAYTEYANSVKGRFTISRDNSKNTVDLQMDSLRPEDTAVYYCVLDLSTVRYWGQGTLVTVSS | s⁻¹ | 0.000253 |
| IL17MS3043 (VHH, variant of IL17MS13B03; Kabat numbering) VHH: EVQLVESGGGSVQPGGSLRLSCAASGRANSINWFGWFRQTPGKEREFVAGIRWSDAYTEYANSVKGRFTISRDNSKNTVYLQMDSLRPEDTAVYYCVLDLSTVRYWGQGTLVTVSS | s⁻¹ | 0.000585 |
